measured_target: KCNJ5^L168R (Homo sapiens, UniProt P48544, L168R)
Construct: expressed in transfected cells
Sequence (P48544 1-419 L168R): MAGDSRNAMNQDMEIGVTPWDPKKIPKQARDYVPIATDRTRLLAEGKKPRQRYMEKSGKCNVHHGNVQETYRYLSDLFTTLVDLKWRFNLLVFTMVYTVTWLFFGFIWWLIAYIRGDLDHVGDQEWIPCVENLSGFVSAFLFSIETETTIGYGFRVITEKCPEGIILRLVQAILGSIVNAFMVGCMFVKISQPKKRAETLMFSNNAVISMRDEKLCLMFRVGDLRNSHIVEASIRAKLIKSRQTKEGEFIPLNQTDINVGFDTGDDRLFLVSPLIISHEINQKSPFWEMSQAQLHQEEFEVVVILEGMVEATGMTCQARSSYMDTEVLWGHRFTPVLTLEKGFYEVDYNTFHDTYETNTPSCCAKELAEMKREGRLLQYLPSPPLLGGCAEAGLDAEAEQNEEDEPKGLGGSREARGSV
measurement_notes: Cell viability assay (ATP, CellTiter-Glo): rescue of KCNJ5^L168R-induced lethality in inducible HEK293 cells
Assay type: cell-based
test_conditions: 10-point dilution 20 to 0.0391 μM, N=3, four-parameter fit
Provide the recorded L168R minimum inhibition for the entries that follow.
Answers are plain numbers, in %.

Record excerpt, results attached:
CC[C@H]1OC(=O)[C@H](C)[C@@H](O[C@H]2C[C@@](C)(O)[C@@H](O)[C@H](C)O2)[C@H](C)[C@@H](O[C@@H]2O[C@H](C)C[C@H](N(C)C)[C@H]2O)[C@](C)(O)C[C@@H](C)C(=O)[C@H](C)[C@@H](O)[C@]1(C)O | 1.41
CC[C@H]1OC(=O)[C@H](C)[C@@H](O[C@H]2C[C@@](C)(OC)[C@@H](O)[C@H](C)O2)[C@H](C)[C@@H](O[C@@H]2O[C@H](C)C[C@H](N(C)C)[C@H]2O)[C@](C)(O)C[C@@H](C)C(=O)[C@H](C)[C@@H](O)[C@H]1C | 1.62

Now consider the entry below.
Q: Lab note: need L168R minimum inhibition with KCNJ5^L168R (Homo sapiens, UniProt P48544, L168R) for entry CC[C@H]1OC(=O)[C@H](C)[C@@H](O[C@H]2C[C@@](C)(OC)[C@@H](O)[C@H](C)O2)[C@H](C)[C@@H](O[C@@H]2O[C@H](C)C[C@H](N(C)C(C)C)[C@H]2O)[C@@]2(C)CC(C)=C(O2)[C@H](C)[C@@H](O)[C@]1(C)O , please look it up.
A: −1.28
